B1: ZNF8 (parent)
chain: KPYTCSVCGKSFSRTTCLFLHLRT

Variants of: B1
test.name: protein stability index of a GFP-peptide fusion (GPS, HEK-293T) (PSI 1-6); higher = more stable;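 also: lentivirally expressed fusions sorted by FACS into six bins by GFP to DsRed ratio, PSI derived from sequencing read proportions per bin multiplied by bin number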
details: c terminus: a fixed tail appended
For each record, write down the corresponding protein stability index.
Answers are plain numbers.

Worked cases, answers included:
// protein stability index value for `L20K` : 2.32

// protein stability index value for `L20F` : 2.14

// protein stability index value for `T24Y` : 1.68

// protein stability index value for `S13I` : 1.67

// protein stability index value for `S11L` : 1.69

// protein stability index value for `S6M` : 1.63

Please go through the list and note protein stability index for each variant.
1. G9L
2. C8S
3. S6P
4. H21A
5. K10A
6. R14C
7. S6I
8. K1A

[out]
2.25
3.95
2.25
2.18
1.79
3.41
1.41
2.74

Please go through the list and note protein stability index for each variant.
1. S11V
2. L22H

[out]
1. 1.84
2. 1.81

Please go through the list and note protein stability index for each variant.
1. G9H
2. T24S
3. P2T
4. L18V
5. F19T
6. K10V

[out]
1. 2.24
2. 1.89
3. 2.19
4. 2.27
5. 1.78
6. 1.83
